Origin of measurements: paper PMC8227856

test: Pharmacokinetic study in mice, plasma LC-MS/MS; format: in vivo; details: female, mouse, plasma, iv, 10 mg/kg i.v., non-compartmental
ASSAY_METRIC: Cmax
Just so you know, I need the unit written after the number.

Req: Quick one: Cmax for C=C[C@]1(C)C[C@@H](OC(=O)CN2CCN(C(=O)CN3CCN(c4ccc([N+](=O)[O-])cc4)CC3)CC2)[C@]2(C)[C@H](C)CC[C@]3(CCC(=O)[C@H]32)[C@@H](C)[C@@H]1O ?
Resp: 8690 ng/mL

----------
experiment: Acute oral toxicity in mice; type: in vivo; conditions: both sexes, mouse, in vivo, po, mice, oral single dose, modified Karber's formula; read-out: LD50
ASSAY_METRIC: LD50 at 2 weeks (mg/kg)
State the answer as a number, implicitly in mg/kg.

Req: Quick one: LD50 at 2 weeks for C=C[C@]1(C)C[C@@H](OC(=O)CN2CCN(C(=O)CN3CCN(c4ccc([N+](=O)[O-])cc4)CC3)CC2)[C@]2(C)[C@H](C)CC[C@]3(CCC(=O)[C@H]32)[C@@H](C)[C@@H]1O ?
Resp: 3760

----------
Assay: Pharmacokinetic study in mice, plasma LC-MS/MS
Format: in vivo
Conditions: female, mouse, plasma, iv, 10 mg/kg i.v., non-compartmental
Method: Adult female mice fasted for 12 h before the experiment. The NPDM was administered intravenously at the dose of 10 mg/kg. Approximately 0.2 mL blood samples were collected from the ocular venous plexus at 0.083, 0.167, 0.25, 0.5, 0.75, 1, 2, 4, 6, 8, 12, and 24 h after administration. […] The pharmacokinetic parameters of the NPDM were calculated using the non-compartmental model in WinNonlin 5.2 software (Pharsight, Mountain View, CA, USA).
ASSAY_METRIC: AUC(0-t)
Just so you know, I need the unit written after the number.

Req: Quick one: AUC(0-t) for C=C[C@]1(C)C[C@@H](OC(=O)CN2CCN(C(=O)CN3CCN(c4ccc([N+](=O)[O-])cc4)CC3)CC2)[C@]2(C)[C@H](C)CC[C@]3(CCC(=O)[C@H]32)[C@@H](C)[C@@H]1O [NPDM] ?
Resp: 3650 ng·h/mL

----------
assay: Pharmacokinetic study in mice, plasma LC-MS/MS; type: in vivo; conditions: female, mouse, plasma, iv, 10 mg/kg i.v., non-compartmental
ASSAY_METRIC: AUC(0-inf) (ng·h/mL)
State the answer as a number, implicitly in ng·h/mL.

Req: Quick one: AUC(0-inf) for C=C[C@]1(C)C[C@@H](OC(=O)CN2CCN(C(=O)CN3CCN(c4ccc([N+](=O)[O-])cc4)CC3)CC2)[C@]2(C)[C@H](C)CC[C@]3(CCC(=O)[C@H]32)[C@@H](C)[C@@H]1O ?
Resp: 3660

----------
assay: Pharmacokinetic study in mice, plasma LC-MS/MS; assay type: in vivo; conditions: female, mouse, plasma, iv, 10 mg/kg, 10 mg/kg i.v., non-compartmental, read-out: MRT
ASSAY_METRIC: MRT (min)
State the answer as a number, implicitly in min.

Req: Quick one: MRT for C=C[C@]1(C)C[C@@H](OC(=O)CN2CCN(C(=O)CN3CCN(c4ccc([N+](=O)[O-])cc4)CC3)CC2)[C@]2(C)[C@H](C)CC[C@]3(CCC(=O)[C@H]32)[C@@H](C)[C@@H]1O ?
Resp: 21.6
